Data credit: ChEMBL document CHEMBL2424526

molecular target: Prothrombin (Homo sapiens); assay: Inhibition of human thrombin assessed as inhibition of fibrinogen polymerization preincubated for 10 mins followed by fibrionogen addition measured for 20 mins
Activity calls are given as the source filed them. The rule behind the calls is not given here.
One label from this list, please: active, inactive

Oc1cc(O)c2c(c1)O[C@H](c1ccc(O)c(O)c1)[C@H](O)C2: inactive

Tell me the recorded outcome of this test for Oc1cc(O)c2cc(O)c(-c3ccc(O)c(O)c3)[o+]c2c1 .
active

Request: Oc1cc(O)c2c(c1)O[C@H](c1ccc(O)c(O)c1)[C@@H](O)C2
inactive

Request: O=c1c(O)c(-c2ccc(O)c(O)c2)oc2cc(O)cc(O)c12
active

Request: OC[C@H]1O[C@@H](Oc2cc3c(O[C@@H]4O[C@H](CO)[C@@H](O)[C@H](O)[C@H]4O)cc(O)cc3[o+]c2-c2ccc(O)c(O)c2)[C@H](O)[C@@H](O)[C@@H]1O
inactive

Request: COc1cc(C2Oc3cc([C@H]4Oc5cc(O)cc(O)c5C(=O)[C@@H]4O)ccc3OC2CO)ccc1O (stereo partly specified)
active
